Attribution: ChEMBL document CHEMBL5620412

# system tested: UniProtKB P18031
# Sequence (P18031 whole entry): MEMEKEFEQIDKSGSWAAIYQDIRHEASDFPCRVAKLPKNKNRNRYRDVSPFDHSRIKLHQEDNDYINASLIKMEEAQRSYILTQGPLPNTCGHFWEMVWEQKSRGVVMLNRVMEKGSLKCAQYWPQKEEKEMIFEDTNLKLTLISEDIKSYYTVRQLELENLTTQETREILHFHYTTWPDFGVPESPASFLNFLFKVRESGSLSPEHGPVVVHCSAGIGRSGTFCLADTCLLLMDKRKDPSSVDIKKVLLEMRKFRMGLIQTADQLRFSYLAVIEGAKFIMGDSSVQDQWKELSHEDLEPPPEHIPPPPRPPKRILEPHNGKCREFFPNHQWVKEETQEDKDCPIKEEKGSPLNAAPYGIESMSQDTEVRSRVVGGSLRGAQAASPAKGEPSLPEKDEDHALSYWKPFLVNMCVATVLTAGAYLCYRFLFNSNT
quantity name: IC50 (µM)
Numbers only here, please. The scale is µM.

Solved cases (2 shown):
- compound: "O=C(O)c1cc2cc(N(Cc3cccc(-c4ccccc4)c3)S(=O)(=O)c3ccc(-c4ccccc4)cc3)ccc2o1"
  system tested: "UniProtKB P18031"
  IC50 (µM): 5.9
- compound: "CC(=O)C1=C(C)N=c2s/c(=C/c3ccc(OCc4ccc(C(=O)O)cc4)cc3)c(=O)n2C1c1ccc(N(C)C)cc1 (stereo not drawn)"
  system tested: "UniProtKB P18031"
  IC50 (µM): 7.1

// O=C(O)c1cc2cc(N(Cc3ccc(OCc4ccccc4)cc3)S(=O)(=O)c3ccc(-c4ccccc4)cc3)ccc2o1 : IC50 value = 10.7

---

# system tested: Tyrosine-protein phosphatase non-receptor type 22 (Homo sapiens, UniProt Q9Y2R2)
# pIC50 listing for each entry below
// scale note: pIC50 = -log10(conc_M); give the bare number

- compound: "O=C(O)c1cc2cc(N(Cc3ccc(-c4ccccc4)cc3)S(=O)(=O)c3ccc(O)c([N+](=O)[O-])c3)ccc2o1"
  pIC50: 4.73
- compound: "CC(=O)C1=C(C)N=c2s/c(=C/c3ccc(OCc4ccc(C(=O)O)cc4)cc3)c(=O)n2C1c1ccc(N(C)C)cc1 (configuration not stated)"
  pIC50: 5.21
- compound: "O=C(O)c1cc2cc(N(Cc3ccc(-c4ccccc4)cc3)S(=O)(=O)c3ccc(Cl)nc3)ccc2o1"
  pIC50: 5.11
- compound: "O=C(O)c1cc2cc(N(Cc3ccc(-c4ccc(Cl)cc4)cc3)S(=O)(=O)c3ccc(Cl)c([N+](=O)[O-])c3)ccc2o1"
  pIC50: 5.17
- compound: "O=C(O)c1cc2cc(N(Cc3cccc(Br)c3)S(=O)(=O)c3ccc(NCCOc4ccccc4)c([N+](=O)[O-])c3)ccc2o1"
  pIC50: 5.17
- compound: "O=C(O)c1cc2cc(N(Cc3ccc(-c4ccccc4)cc3)S(=O)(=O)c3ccc(Br)cc3)ccc2o1"
  pIC50: 5.10

The record that follows has no pIC50 shown yet.
// O=C(O)c1cc2cc(N(Cc3ccc(-c4ccccc4)cc3)S(=O)(=O)c3ccc(Cl)c([N+](=O)[O-])c3)ccc2o1 : pIC50 value = 5.03

---

# system tested: Tyrosine-protein phosphatase non-receptor type 22 (Homo sapiens)
# Sequence (Q9Y2R2 whole entry): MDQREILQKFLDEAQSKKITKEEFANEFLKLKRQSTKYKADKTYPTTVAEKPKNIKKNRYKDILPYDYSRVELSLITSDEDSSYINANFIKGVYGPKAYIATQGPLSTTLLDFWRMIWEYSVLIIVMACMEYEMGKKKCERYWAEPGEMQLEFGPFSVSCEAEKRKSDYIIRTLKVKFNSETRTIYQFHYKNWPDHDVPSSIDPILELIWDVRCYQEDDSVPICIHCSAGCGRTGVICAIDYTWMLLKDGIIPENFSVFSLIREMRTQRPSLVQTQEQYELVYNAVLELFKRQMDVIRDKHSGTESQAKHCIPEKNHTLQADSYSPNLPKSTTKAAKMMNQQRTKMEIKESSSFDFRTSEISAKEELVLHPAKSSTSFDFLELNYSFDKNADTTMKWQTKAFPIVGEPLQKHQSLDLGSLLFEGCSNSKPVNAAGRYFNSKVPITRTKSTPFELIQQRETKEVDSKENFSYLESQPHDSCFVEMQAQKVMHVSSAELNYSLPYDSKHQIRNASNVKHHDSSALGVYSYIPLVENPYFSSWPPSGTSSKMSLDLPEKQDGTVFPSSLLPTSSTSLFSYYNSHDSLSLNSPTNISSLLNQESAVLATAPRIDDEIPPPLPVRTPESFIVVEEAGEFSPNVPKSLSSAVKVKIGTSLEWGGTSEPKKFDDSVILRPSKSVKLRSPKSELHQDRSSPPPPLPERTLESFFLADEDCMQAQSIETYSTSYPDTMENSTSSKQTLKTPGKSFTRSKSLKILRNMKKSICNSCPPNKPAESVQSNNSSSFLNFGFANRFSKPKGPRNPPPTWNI
quantity name: Ki (nM)
Numbers only here, please. The scale is nM.

- molecule: "CC(=O)C1=C(C)N=c2s/c(=C/c3ccc(OCc4ccc(C(=O)O)cc4)cc3)c(=O)n2C1c1ccc(N(C)C)cc1 (configuration not stated)"
  quantity name: "Ki"
  numeric value: 4380

The record that follows has no Ki shown yet.
// O=C(O)c1cc2cc(N(Cc3ccc(OCc4ccccc4)cc3)S(=O)(=O)c3ccc(-c4ccccc4)cc3)ccc2o1 : Ki value = 930

---

# IC50 listing for each entry below
# system tested: Tyrosine-protein phosphatase non-receptor type 22 (Homo sapiens)
Numbers only here, please. The scale is µM.

Solved cases (3 shown):
- record smiles: "O=C(O)c1cc2cc(N(Cc3ccc(-c4ccccc4)cc3)S(=O)(=O)c3ccc(-c4ccccc4)cc3)ccc2o1"
  IC50 / µM: 5.07
- record smiles: "O=C(O)c1cc2cc(N(Cc3ccc(OCc4ccccc4)cc3)S(=O)(=O)c3ccc(-c4ccccc4)cc3)ccc2o1"
  IC50 / µM: 2.55
- record smiles: "O=C(O)c1cc2cc(N(Cc3cccc(-c4ccccc4)c3)S(=O)(=O)c3ccc(-c4ccccc4)cc3)ccc2o1"
  IC50 / µM: 3.23

The record that follows has no IC50 shown yet.
// compound O=C(O)c1cc2cc(N(Cc3ccc(-c4ccccc4)cc3)S(=O)(=O)c3ccc(Cl)cc3)ccc2o1 , assay Tyrosine-protein phosphatase non-receptor type 22 (Homo sapiens), IC50 value: 9.04

---

# pIC50 listing for each entry below
# system tested: UniProtKB Q05209
# Sequence (Q05209 whole entry, the tested form may be a part): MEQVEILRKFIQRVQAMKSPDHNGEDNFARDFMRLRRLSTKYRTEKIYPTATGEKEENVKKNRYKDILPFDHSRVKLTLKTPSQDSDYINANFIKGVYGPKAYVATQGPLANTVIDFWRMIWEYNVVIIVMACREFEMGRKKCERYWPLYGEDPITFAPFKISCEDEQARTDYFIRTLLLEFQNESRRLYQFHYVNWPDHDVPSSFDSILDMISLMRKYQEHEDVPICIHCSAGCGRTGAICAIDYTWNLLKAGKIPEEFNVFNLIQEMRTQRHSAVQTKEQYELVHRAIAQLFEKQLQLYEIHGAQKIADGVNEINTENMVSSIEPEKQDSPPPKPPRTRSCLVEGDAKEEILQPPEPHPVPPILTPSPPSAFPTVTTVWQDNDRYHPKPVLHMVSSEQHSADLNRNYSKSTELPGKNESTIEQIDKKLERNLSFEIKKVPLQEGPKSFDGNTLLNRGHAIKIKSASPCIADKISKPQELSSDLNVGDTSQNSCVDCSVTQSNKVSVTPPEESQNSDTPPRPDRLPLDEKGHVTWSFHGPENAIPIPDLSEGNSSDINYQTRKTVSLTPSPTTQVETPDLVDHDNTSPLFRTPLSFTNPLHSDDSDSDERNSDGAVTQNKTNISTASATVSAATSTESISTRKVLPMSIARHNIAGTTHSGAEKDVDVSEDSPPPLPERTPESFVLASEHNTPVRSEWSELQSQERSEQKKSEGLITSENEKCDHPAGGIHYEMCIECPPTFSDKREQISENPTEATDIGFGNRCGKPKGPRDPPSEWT
# experiment: Inhibition of N-terminal His-tagged PTPN12 catalytic domain (1 to 294 residues) (unknown origin) expressed in Escherichia coli BL21 (DE3) cells
// scale note: pIC50 = -log10(conc_M); give the bare number

- record smiles: "O=C(O)c1cc2cc(N(Cc3cccc(-c4ccccc4)c3)S(=O)(=O)c3ccc(-c4ccccc4)cc3)ccc2o1"
  numeric value: 5.19

The record that follows has no pIC50 shown yet.
// O=C(O)c1cc2cc(N(Cc3ccc(-c4ccccc4)cc3)S(=O)(=O)c3ccc(-c4cccc(O)c4)cc3)ccc2o1 : pIC50 value = 4.97

---

pIC50: −log10 of the molar value.
// Tyrosine-protein phosphatase non-receptor type 5 (Homo sapiens, UniProt P54829) pIC50 records

Solved cases (2 shown):
- record smiles: "O=C(O)c1cc2cc(N(Cc3ccc(-c4ccccc4)cc3)S(=O)(=O)c3ccc(-c4cccc(O)c4)cc3)ccc2o1"
  pIC50: "< 4.70"
- record smiles: "COc1ccc(-c2ccc(CN(c3ccc4oc(C(=O)O)cc4c3)S(=O)(=O)c3ccc(Cl)c([N+](=O)[O-])c3)cc2)cc1"
  pIC50: "< 4.70"

The record that follows has no pIC50 shown yet.
// compound O=C(O)c1cc2cc(N(Cc3ccc(OCc4ccccc4)cc3)S(=O)(=O)c3ccc(-c4ccccc4)cc3)ccc2o1 , assay Tyrosine-protein phosphatase non-receptor type 5 (Homo sapiens, UniProt P54829), pIC50 value: < 4.70
